Target: Paramecium cathepsin L isozymes (30 kDa and 33 kDa) (Paramecium tetraurelia, UniProt Q94714)
Construct: identical enzyme proteins were involved, with the proteins possibly only being processed differently; from tissue; host or cells: Paramecium tetraurelia mass cultures (cell homogenate)
Sequence (Q94714 110-314): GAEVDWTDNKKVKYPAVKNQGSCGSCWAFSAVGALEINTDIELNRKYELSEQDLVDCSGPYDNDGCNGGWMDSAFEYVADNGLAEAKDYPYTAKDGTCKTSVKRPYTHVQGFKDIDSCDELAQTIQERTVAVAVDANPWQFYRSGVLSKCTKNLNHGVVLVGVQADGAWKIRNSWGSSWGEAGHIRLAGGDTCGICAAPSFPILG
Assay: Effect of class-specific protease inhibitors on the purified Paramecium proteases (cathepsin L assay)
Assay type: biochemical
Conditions: 32P phosphorylase a as substrate
Non-standard residues stand in square brackets, D forms with d. Residues, ends and D or L forms follow the SMILES beside them. *: point of attachment. Sta = CC(C)C[C@H](N)[C@@H](O)CC(=O)O; Isovaleryl = CC(C)CC(=O)*

{"columns": ["molecule", "effect of inhibitor on protease activity"],
 "data": [
  ["O=C(O)CN(CCN(CC(=O)O)CC(=O)O)CC(=O)O [EDTA]", "no inhibitory effect"],
  ["CC(C)CC(=O)N[C@H](C(=O)N[C@H](C(=O)N[C@@H](CC(C)C)[C@@H](O)CC(=O)N[C@@H](C)C(=O)N[C@@H](CC(C)C)[C@@H](O)CC(=O)O)C(C)C)C(C)C [pepstatin] (Isovaleryl-VV[Sta]A[Sta]-OH)", "no inhibitory effect"]
]}
